- assay name: AUC (0 to t) in Sprague-Dawley rat at 5 mg/kg, iv
- Format: ADME, organism-based
- condition parameters: in vivo
value type: AUC(0-t) (µg·h/mL)
Answers are plain numbers, in µg·h/mL.

Lookup result for Cn1c(=O)c2c(ncn2CCC(=O)NNC(=O)c2cc3nccc(-c4ccc(OC(F)F)c(OCC5CC5)c4)n3n2)n(C)c1=O ; measured AUC(0-t): 0.235

* * *

- assay name: C0 in Sprague-Dawley rat at 5 mg/kg, iv
- Type: ADME, organism-based
- condition parameters: in vivo
value type: C0 (ng/mL)
One number for each entry, in ng/mL.

Lookup result for Cn1c(=O)c2c(ncn2CCC(=O)NNC(=O)c2cc3nccc(-c4ccc(OC(F)F)c(OCC5CC5)c4)n3n2)n(C)c1=O ; measured C0: 1140
